experiment: amyloid nucleation score (Sup35N fusion, yeast selection) (log enrichment); library NNK3; higher = more nucleation; inactive = no reads after selection;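 further: zero at mode of non-aggregating sequences after 7 days selection at 30°C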
ATTRIBUTE MEASURED: amyloid nucleation score

* DEMRKGRWHGDRLGRSDRQE | inactive
* SHVLWDGTWEVGGGGHKA | inactive
* DFSGVSLDVITRRCLGFIGA | inactive
* NTINVSPVLIDN | inactive
* FYYSWSVFCICMYR | inactive
* MMSDNDISLRRYFVQCLKSS | inactive
* VVDGSRCPPLSLSSDMWAR | inactive
* GIASFECGDSCKSVN | inactive
* YSCGFDLAAWAFTDVIRRRI | inactive
* LIYCYMFMITAVGRACMPCR | inactive
* RYDMRVVSRNQLKYWTMGRE | -0.646
* SNSSYWRICRLETCNPVGYK | inactive
* IHSDLTVSCNIYWKSY | 0.922
* IWISYRMVSFEASKQSVVL | inactive
* ADKRSMMWKFMFSRFCGRVT | inactive
* YTNALPAITFVVIGHLAIQ | 2.64
* ERGGSTFCSTYFTVLKHRSG | inactive

* * *

assay: amyloid nucleation score (Sup35N fusion, yeast selection) (log enrichment); library NNK2; higher = more nucleation; inactive = no reads after selection
Everything with amyloid nucleation score lower than 0.3 is false (0); everything else, including exactly 0.3, is true (1).

• VYFMCLWGFI = false (0)
• VYYGVYLMSCFVAGGYFYCF = true (1)
• RTGLTRYLLYFPV = true (1)
• LYRVILLSSRHNGSNIWAEF = false (0)
• VRGPIGHLCICSAMSLGWIH = true (1)
• EPHSAI = false (0)
• SLSVSTAVIVITLTNGEFIG = true (1)
• TYGTTELVLHRTEINMMRNQ = true (1)
• SVVLYMLVLLDADLSVKTRD = true (1)
• TLCRGTVLVAFGSPNITPSK = true (1)
• FRDIVWF = false (0)
• MKGEMF = false (0)
• YHSFLWKINSCAVMMEDSTG = true (1)
• KYEIRAASARGGSNVCFCIG = true (1)
• DHRRCDSMRTDC = false (0)
• FIHTRRCKYGWTSRFKTLTW = false (0)
• CFHVITVNPGLQ = true (1)
• DKCDMTSTIVSLLVSTPKWS = false (0)
• SSMILLVYCPYVPWNRSRR = true (1)
• RAVEMVYCKLRMSQDGHLRW = true (1)
• TRNAFNCTENISTLPTARYL = false (0)
• NYRLQIINGRRSTSVRVQGA = true (1)
• MVIQHIDRPDYWISWGHNKG = true (1)
• VDLGLLKKTNFTQLYFGDC = true (1)
• IKWRSFPDSYLENFEFI = false (0)
• LCVYLYWF = false (0)
• SSQSRSISYGLGNCWSWWL = true (1)
• FSHFAPWLSSDLCMWSCYLG = true (1)
• RGANNGMCYFMTRRKWLLMV = true (1)
• RMVVVVSKRY = true (1)
• EIQHRNTAYYRSVSVGPTAV = true (1)
• RSFEVKLFARSLKHIPDLTP = true (1)
• IISGAFRCARNGY = true (1)
• SLPGLGFLRLFFQ = false (0)
